Hello, the source for this data is patent EP1638538B1, in case you need it.

Exercise: state measured Time for complete absorption for each of the compounds provided.
- Assay Remarks: Time for complete absorption of sunflower oil into compressed sporopollenin tablets with an absorption aiding liquid
- Assay type: physicochemical
- Condition Set: sunflower oil (1 ml) + liquid (1 ml), 0.5 g tablet, room temperature
- Procedure: Sporopollenin (0.5 g) tablets were prepared by compressing in a 16 mm die at a pressure of 10 tonnes for 2 min. […] The resulting powder was dried in a dessicator over P2O5 in oven at 50°C until constant weight.
One number for each entry, in s.

As a guide, the following entries are already answered.
ClCCl = 35
CC#N = 20
CCOC(C)=O [ethyl acetate] = 50

Next:
Time for complete absorption reading for `CCO` : 20
